Catalogue of 8OG:A repair function score values
B1: library; numbered along this chain (parent)
chain: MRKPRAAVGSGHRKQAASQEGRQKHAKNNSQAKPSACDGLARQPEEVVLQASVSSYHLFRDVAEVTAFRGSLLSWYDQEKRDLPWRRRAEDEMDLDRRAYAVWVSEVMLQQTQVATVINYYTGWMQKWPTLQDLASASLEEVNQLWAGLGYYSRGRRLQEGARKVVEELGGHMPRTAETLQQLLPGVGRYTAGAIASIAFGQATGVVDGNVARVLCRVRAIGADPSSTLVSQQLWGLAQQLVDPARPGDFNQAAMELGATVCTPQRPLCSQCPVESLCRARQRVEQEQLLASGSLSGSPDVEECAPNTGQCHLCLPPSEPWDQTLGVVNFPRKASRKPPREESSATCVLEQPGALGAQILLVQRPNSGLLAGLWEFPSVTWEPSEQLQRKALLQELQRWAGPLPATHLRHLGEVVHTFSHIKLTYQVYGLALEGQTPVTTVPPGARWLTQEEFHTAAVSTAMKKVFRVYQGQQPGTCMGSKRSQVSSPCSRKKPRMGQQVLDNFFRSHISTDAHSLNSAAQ

Variants of: B1
protocol_description: 8OG:A repair function score (normalized; synonymous = 0, nonsense = -1) (normalized log-likelihood score); higher = more repair activity (WT-like);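 also: cells sorted at 72 h after reporter transfection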
experimental_context: with 8OG:A DNA repair reporter (GFP) in HEK-293 MUTYH KO cells

>>> result_value("S138M")
-0.0953

Could you now look at the following variant, please?
I would be grateful if you could share the reported 8OG:A repair function score for "I118Y" .
-0.223

Provenance of the data: the supplement of paper PMC11908140
